Below, each of the compounds is paired with its reported phenotypically active value.
test system: HepG2-TP53BP1-CLTA; assay: phenotypically active (imaging signature differs from DMSO and reproducible) at any of 0.3-9 uM (binary (1 = active, 0 = inactive)); higher = active; details: treatment time: 24 h
Lab note: jot down the number only; don't add units.

Some solved entries appear below for comparison.
Compound	phenotypically active
Cc1c(-c2ccccc2)oc2c(C(=O)OCCN3CCCCC3)cccc2c1=O [flavoxate]	0
CCCCCCCCCCCCCCCC(=O)C(F)(F)F	0
O=c1c(-c2ccc(O)cc2)coc2cc(O)cc(O)c12	0
CC(C)NCC(O)COc1cccc2ccccc12 (centres undefined)	0
CC(C)NCC(O)COc1ccc(CC(N)=O)cc1 (centres undefined)	0

INPUT: Dear colleague, I am looking for the recorded phenotypically active of the following compound: Clc1ccc2nsnc2c1NC1=NCCN1
OUTPUT: 0

INPUT: Dear colleague, I am looking for the recorded phenotypically active of the following compound: CCCCCCCCCCNCCSSCc1ccc(Cl)cc1
OUTPUT: 1

INPUT: Dear colleague, I am looking for the recorded phenotypically active of the following compound: COc1cc2c(cc1OC)CC(=O)N(CCCN(C)C[C@H]1Cc3cc(OC)c(OC)cc31)CC2
OUTPUT: 0

----------
system: A549-CANX-COX4; experiment: phenotypically active (imaging signature differs from DMSO and reproducible) at any of 0.3-9 uM (binary (1 = active, 0 = inactive)); higher = active; conditions: treatment time: 24 h
Below, each of the molecules is paired with its reported phenotypically active value.
Lab note: jot down the number only; don't add units.

Some solved entries appear below for comparison.
Molecule	Readout Value
CCCSc1nc2c(c(=O)n1-c1ccccc1)SCC2	0
Nc1ncnc2c1cnn2-c1ccccc1	0
O=[N+]([O-])c1cc(Cl)ccc1S(=O)(=O)c1ccccc1	0
CN(C)CC(=O)N1CCC[C@@H](n2nc(-c3ccc(Oc4ccccc4)cc3)c3c(N)ncnc32)C1	1
Cc1ccc([N+](=O)[O-])cc1S(=O)(=O)N(C)/N=C/c1cnc2ccc(Br)cn12	1

INPUT: Dear colleague, I am looking for the recorded phenotypically active of the following molecule: COc1ccc(Cn2ccc3ccc(C(=O)NO)cc32)cc1
OUTPUT: 0

INPUT: Dear colleague, I am looking for the recorded phenotypically active of the following molecule: CNC(=O)COC(=O)N1CCC(CCc2ccc(Cl)cc2)CC1
OUTPUT: 0

----------
system: WPMY1-GM130-SQSTM1; assay: phenotypically active (imaging signature differs from DMSO and reproducible) at any of 0.3-9 uM (binary (1 = active, 0 = inactive)); higher = active; conditions: treatment time: 24 h
Below, each of the compounds is paired with its reported phenotypically active value.

Compound	Subject Of Test	phenotypically active
Cc1cc2c(F)c(Oc3ncnn4cc(OC[C@@H](C)O)c(C)c34)ccc2[nH]1	WPMY1-GM130-SQSTM1	0 (inactive)
COc1cc2c(NC3CCN(C(C)C)CC3)nc(C3CCCCC3)nc2cc1OCCCN1CCCC1	WPMY1-GM130-SQSTM1	1 (active)
Cc1n[nH]c(=O)[nH]c1=O	WPMY1-GM130-SQSTM1	0 (inactive)
CC(=O)Nc1nnc(S(N)(=O)=O)s1 [acetazolamide]	WPMY1-GM130-SQSTM1	0 (inactive)

INPUT: Dear colleague, I am looking for the recorded phenotypically active of the following compound: NNCCc1ccccc1
OUTPUT: 0 (inactive)

INPUT: Dear colleague, I am looking for the recorded phenotypically active of the following compound: COc1ccccc1OCCNCC(O)COc1cccc2[nH]c3ccccc3c12 (stereo not given)
OUTPUT: 1 (active)

INPUT: Dear colleague, I am looking for the recorded phenotypically active of the following compound: OCc1cc(C(O)CNCCCCCCOCCCCc2ccccc2)ccc1O (stereo not given)
OUTPUT: 1 (active)

INPUT: Dear colleague, I am looking for the recorded phenotypically active of the following compound: CCc1cccc2c3c([nH]c12)C(CC)(CC(=O)O)OCC3 (stereo not given)
OUTPUT: 0 (inactive)

INPUT: Dear colleague, I am looking for the recorded phenotypically active of the following compound: C=CC(=O)Nc1cccc(Nc2nc(Nc3ccc(Oc4ccnc(C(=O)NC)c4)cc3)ncc2F)c1
OUTPUT: 1 (active)

INPUT: Dear colleague, I am looking for the recorded phenotypically active of the following compound: COc1ccc(CN(CCN(C)C)c2ccccn2)cc1
OUTPUT: 0 (inactive)
